- Target or test system: c-Met kinase (recombinant c-Met) (Homo sapiens, UniProt P08581)
- Construct: 0.27 nM recombinant c-Met
- Sequence (P08581 25-1390): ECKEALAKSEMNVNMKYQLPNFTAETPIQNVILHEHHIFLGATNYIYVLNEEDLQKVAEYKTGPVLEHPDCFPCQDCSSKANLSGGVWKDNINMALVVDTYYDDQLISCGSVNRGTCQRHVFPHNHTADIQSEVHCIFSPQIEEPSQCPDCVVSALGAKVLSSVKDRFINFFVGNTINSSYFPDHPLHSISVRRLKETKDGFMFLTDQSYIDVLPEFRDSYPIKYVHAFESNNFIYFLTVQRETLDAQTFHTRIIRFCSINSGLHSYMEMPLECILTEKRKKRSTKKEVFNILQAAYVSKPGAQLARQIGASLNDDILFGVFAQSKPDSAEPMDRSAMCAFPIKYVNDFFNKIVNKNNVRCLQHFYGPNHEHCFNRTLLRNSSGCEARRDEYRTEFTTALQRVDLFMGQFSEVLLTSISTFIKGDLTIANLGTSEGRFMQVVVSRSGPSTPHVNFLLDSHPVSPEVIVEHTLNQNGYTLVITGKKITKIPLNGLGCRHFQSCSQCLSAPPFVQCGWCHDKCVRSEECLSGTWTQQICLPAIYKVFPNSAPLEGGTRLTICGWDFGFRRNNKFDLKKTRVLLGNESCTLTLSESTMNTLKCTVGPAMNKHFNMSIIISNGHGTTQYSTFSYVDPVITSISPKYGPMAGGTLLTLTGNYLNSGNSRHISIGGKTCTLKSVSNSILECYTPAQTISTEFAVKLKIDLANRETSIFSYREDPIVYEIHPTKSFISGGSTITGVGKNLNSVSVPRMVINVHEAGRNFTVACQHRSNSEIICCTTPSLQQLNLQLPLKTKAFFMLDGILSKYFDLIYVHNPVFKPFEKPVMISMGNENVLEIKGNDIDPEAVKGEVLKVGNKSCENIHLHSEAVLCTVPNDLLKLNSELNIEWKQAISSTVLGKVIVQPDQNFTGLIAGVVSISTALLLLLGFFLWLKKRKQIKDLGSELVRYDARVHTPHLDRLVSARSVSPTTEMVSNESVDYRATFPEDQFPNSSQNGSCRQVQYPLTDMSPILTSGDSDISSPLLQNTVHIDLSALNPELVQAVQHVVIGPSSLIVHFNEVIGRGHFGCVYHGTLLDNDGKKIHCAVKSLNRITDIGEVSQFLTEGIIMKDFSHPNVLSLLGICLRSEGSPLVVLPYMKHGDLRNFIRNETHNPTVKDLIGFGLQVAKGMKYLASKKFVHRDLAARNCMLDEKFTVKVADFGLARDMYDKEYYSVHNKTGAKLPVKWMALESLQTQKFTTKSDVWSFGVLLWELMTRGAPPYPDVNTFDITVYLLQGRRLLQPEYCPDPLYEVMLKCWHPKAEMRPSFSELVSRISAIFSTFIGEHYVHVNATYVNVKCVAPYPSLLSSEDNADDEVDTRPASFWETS
- Measurement protocol: In vitro kinase assay I (homogeneous time-resolved fluorescence tyrosine kinase assay)
Readout: IC50

>>> result("COCCNc1cnc(-c2cccc(Cc3nn(-c4cnn(C)c4)ccc3=O)c2)nc1")
"< 100 nM"

Recall and state the measured IC50 for O=C(Nc1cccc(Cc2nn(-c3cc(F)c(F)c(F)c3)ccc2=O)c1)OCC1CCOC1 (racemic) .
< 100 nM

---

- Target or test system: c-Met kinase (recombinant c-Met) (Homo sapiens, UniProt P08581)
- Construct: 0.27 nM recombinant c-Met
- Measurement protocol: In vitro kinase assay I (homogeneous time-resolved fluorescence tyrosine kinase assay)
pIC50: −log10 of the molar value.
Readout: pIC50

In the examples that follow, each entry is paired with its recorded pIC50.
>>> result("N#Cc1cc(Cl)cc(-n2ccc(=O)c(Cc3cccc(NC(=O)OCC4CCOC4)c3)n2)c1 (racemic)")
"> 7.00"
>>> result("Cn1cc(-n2ccc(=O)c(Cc3cccc(-c4ncc(O)cn4)c3)n2)cn1")
"6.00 to 7.00"
>>> result("Cn1cc(-n2ccc(=O)c(Cc3cccc(-c4ncc(OCc5ccncc5)cn4)c3)n2)cn1")
"> 7.00"
>>> result("CC(C)COC(=O)Nc1cccc(Cc2nn(-c3cnn(CC(F)(F)F)c3)ccc2=O)c1")
"> 7.00"
>>> result("CCn1cc(-n2ccc(=O)c(C(C)c3cccc(-c4ncc(OC5COC5)cn4)c3)n2)cn1 (single isomer, unassigned) [Example 213]")
"6.00 to 7.00"

Give pIC50 only, for CCn1cc(-n2ccc(=O)c(Cc3cccc(-c4ncc(OC5CCOC5)cn4)c3)n2)cn1 (racemic) , using c-Met kinase (recombinant c-Met) (Homo sapiens, UniProt P08581) data.
> 7.00

---

- Target or test system: c-Met kinase (recombinant c-Met) (Homo sapiens, UniProt P08581)
- Construct: 0.27 nM recombinant c-Met
- Measurement protocol: In vitro kinase assay I (homogeneous time-resolved fluorescence tyrosine kinase assay)
- Procedure: The kinase activities of c-Met are measured using a modified version of the homogeneous-time-resolved tyrosine kinase assay described by Park et al. (1999, Anal. Biochem. 269:94-104). The procedure for determining the potency of a compound to inhibit c-Met kinase comprises the following steps: • 1. […] Read HTRF signals on a Victor reader (PerkinElmer) in HTRF mode after 60-min incubation at room temperature in the dark. • 6. […]
Readout: IC50

>>> result("Cn1cc(-c2cnc(-c3cccc(Cc4nn(-c5cnn(C)c5)ccc4=O)c3)nc2)cn1 [Example 154]")
"< 0.1 µM"

Recall and state the measured IC50 for CCOC(=O)c1coc(-c2cccc(Cc3nn(-c4cnn(C)c4)ccc3=O)c2)n1 [Example 674] .
1 to 3 µM

Recall and state the measured IC50 for Cn1cc(-n2ccc(=O)c(Cc3cccc(-c4ncc(OCC(F)F)cn4)c3)n2)cn1 [Example 274] .
< 0.1 µM

Recall and state the measured IC50 for CCCC(=O)Nc1cccc(Cc2nn(-c3cnn(C)c3)ccc2=O)c1 [Example 634] .
0.1 to 1 µM

Recall and state the measured IC50 for Cn1cc(-n2ccc(=O)c(Cc3cccc(NC(=O)OCC(F)CN4CCOCC4)c3)n2)cn1 (racemic) [Example 638] .
< 0.1 µM

Recall and state the measured IC50 for CCC(=O)Nc1cccc(Cc2nn(-c3cnn(C)c3)ccc2=O)c1 [Example 635] .
0.1 to 1 µM

Recall and state the measured IC50 for CC1CCC(=O)N1[C@@H](C)COC(=O)Nc1cccc(Cc2nn(-c3cnn(C)c3)ccc2=O)c1 (single isomer, unassigned) [Example 610] .
< 0.1 µM

Recall and state the measured IC50 for CCn1cnc(-c2cccc(Cc3nn(-c4cnn(C)c4)ccc3=O)c2)n1 [Example 708] .
< 0.1 µM

Recall and state the measured IC50 for CC(c1cccc(-c2ncc(OC(F)F)cn2)c1)c1nn(-c2cnn(C)c2)ccc1=O (single isomer, unassigned) [Example 210] .
< 0.1 µM

---

- Target or test system: c-Met kinase (recombinant c-Met) (Homo sapiens, UniProt P08581)
- Construct: 0.27 nM recombinant c-Met
- Measurement protocol: In vitro kinase assay I (homogeneous time-resolved fluorescence tyrosine kinase assay)
pIC50: −log10 of the molar value.
Readout: pIC50

In the examples that follow, each entry is paired with its recorded pIC50.
>>> result("O=C(Nc1cccc(Cc2nn(-c3cc(F)c(F)c(F)c3)ccc2=O)c1)OCC1CCCCC1 [Example 557]")
"> 7.00"
>>> result("COCCOc1cnc(-c2cccc(Cc3nn(-c4ccc(Cl)c(F)c4)ccc3=O)c2)nc1 [Example 153]")
"> 7.00"

Now look at this entry.
Recall and state the measured pIC50 for CC(C)(O)COc1cnc(-c2cccc(Cc3nn(-c4cc(F)cc(F)c4)ccc3=O)c2)nc1 [Example 363] .
> 7.00

---

- Target or test system: c-Met kinase (recombinant c-Met) (Homo sapiens, UniProt P08581)
- Construct: 0.27 nM recombinant c-Met
- Measurement protocol: In vitro kinase assay I (homogeneous time-resolved fluorescence tyrosine kinase assay)
pIC50: −log10 of the molar value.
Listing of entries alongside the reported pIC50.

In the examples that follow, each entry is paired with its recorded pIC50.
>>> result("CCn1cc(-n2ccc(=O)c(C(C)c3cccc(-c4ncc(OCc5ccccc5)cn4)c3)n2)cn1 (single isomer, unassigned) [Example 228]")
"6.00 to 7.00"
>>> result("O=C(Nc1cccc(Cc2nn(-c3cc(F)c(F)c(F)c3)ccc2=O)c1)OCC1COCCO1 (racemic)")
"> 7.00"
>>> result("CCOc1cnc(-c2cccc(C(C)c3nn(-c4cnn(CCO)c4)ccc3=O)c2)nc1 (single isomer, unassigned) [Example 255]")
"6.00 to 7.00"
>>> result("Cn1cc(-n2ccc(=O)c(Cc3cccc(-c4ncc(OC5COC5)cn4)c3)n2)cn1")
"> 7.00"
>>> result("CCOCCOc1cnc(-c2cccc(Cc3nn(-c4cccc(C#N)c4)ccc3=O)c2)nc1")
"> 7.00"
>>> result("N#Cc1cccc(-n2ccc(=O)c(Cc3cccc(NC(=O)OCC4CCOC4)c3)n2)c1 (racemic)")
"> 7.00"
>>> result("CCCOC(=O)Nc1cccc(Cc2nn(-c3cc(F)c(F)c(F)c3)ccc2=O)c1")
"> 7.00"
>>> result("CCCOC(=O)Nc1cccc(Cc2nn(-c3cnn(C4CCOC4)c3)ccc2=O)c1 (racemic)")
"> 7.00"

Give pIC50 only, for CCOc1cnc(-c2cccc(C(O)c3nn(-c4cnn(C)c4)ccc3=O)c2)nc1 (racemic) , using c-Met kinase (recombinant c-Met) (Homo sapiens, UniProt P08581) data.
6.00 to 7.00

Give pIC50 only, for CCn1cc(-n2ccc(=O)c(Cc3cccc(-c4ncc(OCC5CCO5)cn4)c3)n2)cn1 (racemic) , using c-Met kinase (recombinant c-Met) (Homo sapiens, UniProt P08581) data.
> 7.00

Give pIC50 only, for Cn1cc(-n2ccc(=O)c(Cc3cccc(NC(=O)OCC(C)(C)C)c3)n2)cn1 , using c-Met kinase (recombinant c-Met) (Homo sapiens, UniProt P08581) data.
> 7.00

Give pIC50 only, for COCCOc1cnc(-c2cccc(Cc3nn(-c4cc(F)c(F)c(F)c4)ccc3=O)c2)nc1 , using c-Met kinase (recombinant c-Met) (Homo sapiens, UniProt P08581) data.
> 7.00

---

- Target or test system: c-Met kinase (recombinant c-Met) (Homo sapiens)
- Construct: 0.27 nM recombinant c-Met
- Measurement protocol: In vitro kinase assay I (homogeneous time-resolved fluorescence tyrosine kinase assay)
pIC50: −log10 of the molar value.
Listing of entries alongside the reported pIC50.

>>> result("CCc1cnc(-c2cccc(Cc3nn(-c4cnn(C)c4)ccc3=O)c2)nc1")
"> 7.00"
>>> result("CN1CCN(CCCNC(=O)c2cnc(-c3cccc(Cc4nn(-c5cnn(C)c5)ccc4=O)c3)nc2)CC1")
"> 7.00"
>>> result("Cn1cc(-n2ccc(=O)c(Cc3cccc(-c4ncc(C(=O)NCC5CCOC5)cn4)c3)n2)cn1 (racemic)")
"> 7.00"
>>> result("Cn1cc(-n2ccc(=O)c(Cc3ccc4ncc(OCC5(C)COC5)cc4c3)n2)cn1")
"> 7.00"
>>> result("CCn1cc(-n2ccc(=O)c(Cc3cccc(-c4ncc(OCCn5cccn5)cn4)c3)n2)cn1")
"> 7.00"

Give pIC50 only, for CCCc1nc(-c2cccc(Cc3nn(-c4cnn(C)c4)ccc3=O)c2)n[nH]1 , using c-Met kinase (recombinant c-Met) (Homo sapiens) data.
6.00 to 7.00

Give pIC50 only, for C/C=C/c1cnc(-c2cccc(Cc3nn(-c4cnn(C)c4)ccc3=O)c2)nc1 , using c-Met kinase (recombinant c-Met) (Homo sapiens) data.
> 7.00

Give pIC50 only, for Cn1cc(-n2ccc(=O)c(Cc3cccc(-c4ncc(C(=O)NCC5COCCO5)cn4)c3)n2)cn1 (racemic) [Example 474] , using c-Met kinase (recombinant c-Met) (Homo sapiens) data.
> 7.00

Give pIC50 only, for Cc1ccc2c(Cc3nn(-c4cnn(C)c4)ccc3=O)cccc2n1 , using c-Met kinase (recombinant c-Met) (Homo sapiens) data.
5.52 to 6.00

Give pIC50 only, for CCn1cc(-n2ccc(=O)c(C(C)c3cccc(-c4ncc(OC)cn4)c3)n2)cn1 (single isomer, unassigned) [Example 332] , using c-Met kinase (recombinant c-Met) (Homo sapiens) data.
6.00 to 7.00
